System: 926638-142-R-J1-PDC complex spheroid viability;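 also: spheroids exposed to drugs for one week before readout; percent viability relative to DMSO vehicle control wells set as 100%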
Assay: Anticancer human tumor 926638-142-R-J1-PDC patient-derived endometrial carcinoma cell line growth inhibition [POLQ]
Conditions: second compound 10 µM; first compound 0.01 µM; stronger effect = lower value
Documented viability, T/C across a set of molecules

[
  {
    "MOLECULE": "C=CCn1c(=O)c2cnc(Nc3ccc(N4CCN(C)CC4)cc3)nc2n1-c1cccc(C(C)(C)O)n1 + Cc1cccc(N(C)C(=O)C2C(O)CCN2c2nc(C)cc(C(F)(F)F)c2C#N)c1",
    "TARGET": "926638-142-R-J1-PDC complex spheroid viability",
    "UNIT": "%",
    "viability, T/C": 78.9
  },
  {
    "MOLECULE": "Cn1ncnc1[C@H]1c2n[nH]c(=O)c3cc(F)cc(c23)N[C@@H]1c1ccc(F)cc1 + Cc1cccc(N(C)C(=O)C2C(O)CCN2c2nc(C)cc(C(F)(F)F)c2C#N)c1",
    "TARGET": "926638-142-R-J1-PDC complex spheroid viability",
    "UNIT": "%",
    "viability, T/C": 80
  },
  {
    "MOLECULE": "Cn1ncnc1[C@H]1c2n[nH]c(=O)c3cc(F)cc(c23)N[C@@H]1c1ccc(F)cc1 + Nc1ccc(C#CCN(C(=O)Cc2ncc(C(F)(F)F)cc2C(F)(F)F)c2ccc(F)cc2)nn1",
    "TARGET": "926638-142-R-J1-PDC complex spheroid viability",
    "UNIT": "%",
    "viability, T/C": 74
  },
  {
    "MOLECULE": "COc1cccc(OCCCN)c1-c1cc(Nc2cnc(C#N)cn2)n[nH]1 + Nc1ccc(C#CCN(C(=O)Cc2ncc(C(F)(F)F)cc2C(F)(F)F)c2ccc(F)cc2)nn1",
    "TARGET": "926638-142-R-J1-PDC complex spheroid viability",
    "UNIT": "%",
    "viability, T/C": 71.7
  },
  {
    "MOLECULE": "CC[C@@]1(O)C(=O)OCc2c1cc1n(c2=O)Cc2cc3c(CN(C)C)c(O)ccc3nc2-1 + Nc1ccc(C#CCN(C(=O)Cc2ncc(C(F)(F)F)cc2C(F)(F)F)c2ccc(F)cc2)nn1",
    "TARGET": "926638-142-R-J1-PDC complex spheroid viability",
    "UNIT": "%",
    "viability, T/C": 79.6
  },
  {
    "MOLECULE": "COc1cccc(OCCCN)c1-c1cc(Nc2cnc(C#N)cn2)n[nH]1 + Cc1cccc(N(C)C(=O)C2C(O)CCN2c2nc(C)cc(C(F)(F)F)c2C#N)c1",
    "TARGET": "926638-142-R-J1-PDC complex spheroid viability",
    "UNIT": "%",
    "viability, T/C": 80.9
  }
]

Reference source for all entries: PubChem BioAssay AID1963826
